Ref: ChEMBL document CHEMBL5375986

Give measured MIC for each item. Keep answers brief.
System: Nakaseomyces glabratus
Experiment: Antifungal activity against Candida glabrata ATCC 2001 assessed as inhibition of fungal growth incubated for 24 to 48 hrs by CLSI protocol based broth microdilution method
Assay type: functional
Settings: time 24-48 hrs
Hi! Could you send only the number? It should be in µM, unit omitted.

Lookup result for C/C(CCC(=O)O)=N\Nc1nc(-c2ccc(Br)cc2)cs1 ; measured MIC: 42.4

Lookup result for C/C(CCC(=O)O)=N\Nc1nc(-c2ccc(C#N)cc2)cs1 ; measured MIC: 49.7

Lookup result for COc1ccc(-c2csc(N/N=C(\C)CCC(=O)O)n2)cc1 ; measured MIC: 48.9

Lookup result for CCOC(=O)Cc1csc(N/N=C(\C)CCC(=O)O)n1 ; measured MIC: 52.2
